- TARGET_SYSTEM: human KDR protein in HEK-293 cells (Homo sapiens (Human), UniProt P35968)
- Sequence (P35968 20-1356): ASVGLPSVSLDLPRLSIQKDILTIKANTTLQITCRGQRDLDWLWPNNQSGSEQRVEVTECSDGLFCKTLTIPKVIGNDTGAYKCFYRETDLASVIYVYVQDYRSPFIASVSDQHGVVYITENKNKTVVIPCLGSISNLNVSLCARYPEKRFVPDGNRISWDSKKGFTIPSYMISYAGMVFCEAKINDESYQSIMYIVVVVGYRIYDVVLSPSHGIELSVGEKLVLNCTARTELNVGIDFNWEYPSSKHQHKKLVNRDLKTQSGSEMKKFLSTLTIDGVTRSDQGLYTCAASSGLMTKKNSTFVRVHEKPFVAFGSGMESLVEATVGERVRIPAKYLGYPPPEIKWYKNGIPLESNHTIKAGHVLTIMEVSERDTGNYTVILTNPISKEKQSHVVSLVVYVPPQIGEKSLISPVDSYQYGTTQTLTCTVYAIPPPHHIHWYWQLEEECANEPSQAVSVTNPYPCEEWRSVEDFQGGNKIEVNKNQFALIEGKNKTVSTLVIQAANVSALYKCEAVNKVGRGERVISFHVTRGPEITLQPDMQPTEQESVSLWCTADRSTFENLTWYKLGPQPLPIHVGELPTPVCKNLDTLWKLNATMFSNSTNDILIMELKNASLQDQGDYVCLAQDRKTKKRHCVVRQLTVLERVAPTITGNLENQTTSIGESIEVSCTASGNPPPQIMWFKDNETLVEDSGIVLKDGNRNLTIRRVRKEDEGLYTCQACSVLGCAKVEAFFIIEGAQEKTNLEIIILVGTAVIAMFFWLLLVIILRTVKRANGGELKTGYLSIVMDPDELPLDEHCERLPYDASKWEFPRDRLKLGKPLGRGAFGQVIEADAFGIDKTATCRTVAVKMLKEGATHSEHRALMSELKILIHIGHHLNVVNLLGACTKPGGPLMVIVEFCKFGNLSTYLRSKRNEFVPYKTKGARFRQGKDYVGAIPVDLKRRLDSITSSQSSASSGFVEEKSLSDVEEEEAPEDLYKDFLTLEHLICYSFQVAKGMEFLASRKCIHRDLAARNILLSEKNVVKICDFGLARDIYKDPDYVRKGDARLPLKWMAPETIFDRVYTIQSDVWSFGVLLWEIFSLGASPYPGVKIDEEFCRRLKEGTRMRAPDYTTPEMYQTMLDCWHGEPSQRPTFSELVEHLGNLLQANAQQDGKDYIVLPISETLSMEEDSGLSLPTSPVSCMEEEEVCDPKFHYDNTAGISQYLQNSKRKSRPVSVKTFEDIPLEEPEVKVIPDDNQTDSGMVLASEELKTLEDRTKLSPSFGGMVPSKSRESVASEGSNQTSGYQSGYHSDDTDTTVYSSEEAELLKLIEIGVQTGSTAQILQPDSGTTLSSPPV
- EXPERIMENT_DESCRIPTION: KDR Cell Assay (phospho-KDR in HEK-293 cells expressing inducible KDR)
- Format: cell-based
- DETAILS: pKDR Cell HEK 10% FBS IC50, HEK-293 cells expressing inducible KDR, VEGF stimulated, 10% FBS
For each of the compounds below, state its pIC50.
Scale note: pIC50 = -log10(concentration in M).

Problem: Give human KDR protein in HEK-293 cells (Homo sapiens (Human), UniProt P35968) pIC50 for the following compound: "CN1CCN(c2ccc(-c3cc(-c4cnn(C)c4)cn4ncc(Cl)c34)cn2)CC1"
Solution: 5.62

Problem: Give human KDR protein in HEK-293 cells (Homo sapiens (Human), UniProt P35968) pIC50 for the following compound: "Cn1cc(-c2cc(-c3ccc(N4CCN(C(=O)N5CCCC(F)(F)C5)CC4)nc3)c3c(C#N)cnn3c2)cn1"
Solution: 5.77

Problem: Give human KDR protein in HEK-293 cells (Homo sapiens (Human), UniProt P35968) pIC50 for the following compound: "Cn1cc(-c2cc(-c3cnc(N4CCN(C(=O)[C@H](O)c5ccccc5)CC4)nc3)c3c(C#N)cnn3c2)cn1"
Solution: 6.18

Problem: Give human KDR protein in HEK-293 cells (Homo sapiens (Human), UniProt P35968) pIC50 for the following compound: "C[C@@H](CO)Cn1cc(-c2cc(-c3ccc(N4CCN(C(=O)CC(C)(C)C)CC4)cc3)c3c(C#N)cnn3c2)cn1"
Solution: 6.06

---

For each of the compounds below, state its IC50.
- TARGET_SYSTEM: Kif5b-RET fusion protein in HEK-293 cells (Homo sapiens)
- Sequence (P07949 29-1114 limits assumed): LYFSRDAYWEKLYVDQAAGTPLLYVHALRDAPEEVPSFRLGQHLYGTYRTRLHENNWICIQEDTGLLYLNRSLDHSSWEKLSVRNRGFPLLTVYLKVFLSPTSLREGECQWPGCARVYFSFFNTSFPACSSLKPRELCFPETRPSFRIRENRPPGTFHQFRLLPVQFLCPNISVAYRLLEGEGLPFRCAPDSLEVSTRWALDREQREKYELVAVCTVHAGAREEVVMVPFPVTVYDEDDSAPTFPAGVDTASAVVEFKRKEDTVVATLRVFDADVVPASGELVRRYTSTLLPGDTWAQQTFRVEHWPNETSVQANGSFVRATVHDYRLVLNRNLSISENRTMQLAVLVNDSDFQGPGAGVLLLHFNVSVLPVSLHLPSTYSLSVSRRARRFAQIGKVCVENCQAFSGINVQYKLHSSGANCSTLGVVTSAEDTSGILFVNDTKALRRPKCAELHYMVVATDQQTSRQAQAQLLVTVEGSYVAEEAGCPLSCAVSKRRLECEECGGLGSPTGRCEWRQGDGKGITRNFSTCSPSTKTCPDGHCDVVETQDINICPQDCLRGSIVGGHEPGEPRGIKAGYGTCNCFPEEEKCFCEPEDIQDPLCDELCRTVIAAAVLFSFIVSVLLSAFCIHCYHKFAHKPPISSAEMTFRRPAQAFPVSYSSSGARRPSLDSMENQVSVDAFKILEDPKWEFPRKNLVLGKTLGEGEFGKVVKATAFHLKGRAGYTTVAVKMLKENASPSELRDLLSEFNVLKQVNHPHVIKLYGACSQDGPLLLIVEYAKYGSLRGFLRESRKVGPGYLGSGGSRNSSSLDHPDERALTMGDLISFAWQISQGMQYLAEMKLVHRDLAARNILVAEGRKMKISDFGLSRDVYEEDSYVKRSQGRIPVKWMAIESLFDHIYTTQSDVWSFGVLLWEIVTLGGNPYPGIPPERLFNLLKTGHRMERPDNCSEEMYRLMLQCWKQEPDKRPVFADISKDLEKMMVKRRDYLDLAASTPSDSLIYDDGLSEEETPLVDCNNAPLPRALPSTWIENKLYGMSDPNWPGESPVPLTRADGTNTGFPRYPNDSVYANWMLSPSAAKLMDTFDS
- EXPERIMENT_DESCRIPTION: cell-based
- Description: The cellular potency of a compound inhibiting RET kinase was determined in HEK-293 cells expressing a Kif5b-RET fusion protein. Briefly, HEK-293 cells expressing a Kif5b-RET fusion protein were plated at 50K cells/well in 96 well poly-D-Lysine coated plates the day prior to the assay. […] The plates were washed with PBS-0.05% Tween20, 100 μL PBS was added to each well, and the plates were read on a LI-COR Aerius fluorescent plate reader. […]
I only need the number, in nM, no unit after it.

Problem: Provide measured IC50 value, entry: "COc1ccc(CN2CCN(c3ccc(-c4cc(-c5cnn(C(C)C)c5)cn5ncc(C#N)c45)cn3)CC2)cn1"
Solution: 13.8

Problem: Provide measured IC50 value, entry: "COc1ccccc1CN1CCN(c2ccc(-c3cc(-c4cnn(C)c4)cn4ncc(C#N)c34)cn2)CC1"
Solution: 4.9

Problem: Provide measured IC50 value, entry: C[C@H](O)[C@@H](C)N1CCN(c2ccc(-c3cc(-c4cnn(C)c4)cn4ncc(C#N)c34)cn2)CC1 (racemic)
Solution: 28.9

Problem: Provide measured IC50 value, entry: "CC(C)n1cc(-c2cc(-c3ccc(N4CCN(Cc5ccccc5)CC4)nc3)c3c(C#N)cnn3c2)cn1"
Solution: 2.5

---

- TARGET_SYSTEM: N-terminal GST tagged recombinant human RET cytoplasmic domain (aa 658-end), wild type RET kinase (Homo sapiens (Human))
- Sequence (P07949 658-1114): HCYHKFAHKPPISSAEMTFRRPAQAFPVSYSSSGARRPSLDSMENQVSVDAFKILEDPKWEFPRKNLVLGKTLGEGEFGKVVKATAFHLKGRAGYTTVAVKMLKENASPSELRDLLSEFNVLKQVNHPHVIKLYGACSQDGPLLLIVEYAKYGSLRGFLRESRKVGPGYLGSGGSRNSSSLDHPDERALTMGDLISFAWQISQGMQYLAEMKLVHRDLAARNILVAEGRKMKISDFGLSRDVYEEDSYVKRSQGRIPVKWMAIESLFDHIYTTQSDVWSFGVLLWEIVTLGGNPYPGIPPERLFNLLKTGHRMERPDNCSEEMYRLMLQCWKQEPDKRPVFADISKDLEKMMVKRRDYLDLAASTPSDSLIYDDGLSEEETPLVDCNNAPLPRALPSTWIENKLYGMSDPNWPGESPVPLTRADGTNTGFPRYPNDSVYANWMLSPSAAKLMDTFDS
- EXPERIMENT_DESCRIPTION: RET Enzyme Assay (HTRF KinEASE-TK), wild type RET
- Assay type: biochemical
- DETAILS: wild type RET, 1 mM ATP
OBSERVABLE: IC50 (nM)
I only need the number, in nM, no unit after it.

Problem: Provide measured IC50 value, entry: "C[C@H](CO)Cn1cc(-c2cc(-c3ccc(N4CCN(Cc5ccccc5)CC4)nc3)c3c(C#N)cnn3c2)cn1"
Solution: 13.3

Problem: Provide measured IC50 value, entry: "CN1CCN(c2ccc(-c3cc(-c4cnn(C)c4)cn4ncc(Cl)c34)cn2)CC1"
Solution: 63.7

Problem: Provide measured IC50 value, entry: CCC(C)(O)CC(=O)N1CCN(c2ccc(-c3cc(-c4cnn(C)c4)cn4ncc(C#N)c34)cn2)CC1 (stereo not shown)
Solution: 11.5

Problem: Provide measured IC50 value, entry: CC(C)C(O)CN1CCN(c2ccc(-c3cc(-c4cnn(C)c4)cn4ncc(Cl)c34)cn2)CC1 (stereo not shown)
Solution: 34.1

Problem: Provide measured IC50 value, entry: "CC(C)COC1CCN(c2ccc(-c3cc(-c4cnn(C)c4)cn4ncc(C#N)c34)cn2)CC1"
Solution: 14

Problem: Provide measured IC50 value, entry: C[C@H](O)[C@@H](C)N1CCN(c2ccc(-c3cc(-c4cnn(C)c4)cn4ncc(C#N)c34)cn2)CC1 (racemic)
Solution: 24.8

Problem: Provide measured IC50 value, entry: "COC(C)(C)CN1CCN(c2ccc(-c3cc(-c4cnn(C)c4)cn4ncc(C#N)c34)cn2)CC1"
Solution: 41.3
